inhibition at 75 µM for assorted molecules
Tested on: HIV-1 BaL (R5)
testProtocol: Anti-HIV activity in infected TZM-bl cells (luciferase), pre- and post-infection treatment
Format: cell-based, Human Immunodeficiency Virus Type 1 (HIV-1)
testContext: Human immunodeficiency virus 1, BAL; 75 µM, TZM-bl cells; read-out: Percentage inhibition of HIV-1 BaL replication
Write down the numeric answer in % and omit the unit.

COc1c(Cl)cc(C[C@@H](C(=O)O)N(C)C)cc1Cl [TODC-2M]
60.5
COc1c(Cl)cc(CC[N+](C)(C)C)cc1Cl [YODC-3M]
-1
COc1c(Cl)cc(C[C@@H](C(=O)O)[N+](C)(C)C)cc1Cl [TODC-3M]
37.6
C[N+](C)(C)CCc1cc(Cl)c(O)c(Cl)c1 [YDC-3M]
33.4

Give a short answer stating reported inhibition at 75 µM for COc1c(Br)cc(C[C@@H](C(=O)O)[N+](C)(C)C)cc1Br [TODB-3M] . -17.7

Specify inhibition at 75 µM for COc1c(Br)cc(C[C@@H](C(=O)O)N(C)C)cc1Br [TODB-2M] and stop. 37.7

Kindly indicate its recorded inhibition at 75 µM. Item: CN(C)[C@@H](Cc1cc(Cl)c(O)c(Cl)c1)C(=O)O [TDC-2M] 37.9

These measurements were taken from paper PMC10605077.
